The entries below come with measured CC50 at 168 h values attached.
Assay: Cytotoxicity against african green monkey Vero cells after 1 week
Assay type: cell-based
Conditions: chlorocebus sabaeus
observationType: CC50 at 168 h

O=c1ccn([C@@H]2O[C@H](COC(c3ccccc3)(c3ccccc3)c3ccccc3)[C@@H](O)[C@H]2OC(c2ccccc2)(c2ccccc2)c2ccccc2)c(=O)[nH]1 :: > 100 µM
Oc1ncnc2c1ncn2[C@@H]1O[C@H](COC(c2ccccc2)(c2ccccc2)c2ccccc2)[C@@H](O)[C@H]1O :: 30 µM
O=c1[nH]c(=O)n([C@@H]2O[C@H](COC(c3ccccc3)(c3ccccc3)c3ccccc3)[C@@H](OC(c3ccccc3)(c3ccccc3)c3ccccc3)[C@H]2O)cc1Cl :: 2 µM
O=c1[nH]c(=O)n([C@@H]2O[C@H](CO)[C@@H](O)[C@H]2OC(c2ccccc2)(c2ccccc2)c2ccccc2)cc1Cl :: 30 µM
Cc1cn([C@H]2C[C@H](OC(c3ccccc3)(c3ccccc3)c3ccccc3)[C@@H](CO)O2)c(=O)[nH]c1=O :: 18 µM
O=c1[nH]c(=O)n([C@@H]2O[C@H](COC(c3ccccc3)(c3ccccc3)c3ccccc3)[C@@H](O)[C@H]2OC(c2ccccc2)(c2ccccc2)c2ccccc2)cc1Cl :: > 70 µM
O=c1[nH]cnc2c1ncn2[C@@H]1O[C@H](COC(c2ccccc2)(c2ccccc2)c2ccccc2)[C@@H](O)[C@H]1OC(c1ccccc1)(c1ccccc1)c1ccccc1 :: 10 µM
O=c1ccn([C@@H]2O[C@H](COC(c3ccccc3)(c3ccccc3)c3ccccc3)[C@@H](OC(c3ccccc3)(c3ccccc3)c3ccccc3)[C@H]2O)c(=O)[nH]1 :: > 85 µM
Cc1cn([C@H]2C[C@H](O)[C@@H](COC(c3ccccc3)(c3ccccc3)c3ccccc3)O2)c(=O)[nH]c1=O :: 8 µM

The values you see were collected from ChEMBL document CHEMBL2401640.
